Test system: 947758-054-R-J2-PDC spheroid growth, percent test/control
Assay: Anticancer human tumor 947758-054-R-J2-PDC patient-derived colon adenocarcinoma cell line growth inhibition [CLK]; active = viability on the fitted dose curve at most 10% of control; inactive = the rest
Conditions: second compound 3.16 µM; first compound 0.000949 µM; spheroids with HUVEC and MSC
Respond with a class label; see T for active, F for inactive

Answered cases to consult:
[
  {
    "compound": "C=CC(=O)Nc1cc(Nc2nccc(-c3cn(C)c4ccccc34)n2)c(OC)cc1N(C)CCN(C)C + CNC(=O)c1ccc(Nc2nc(OC3CCCC3)c3c(-c4ccc5nc(C)oc5c4)c[nH]c3n2)c(OC)c1",
    "category": "F"
  },
  {
    "compound": "C=CC(=O)Nc1cc(Nc2nccc(-c3cn(C)c4ccccc34)n2)c(OC)cc1N(C)CCN(C)C + CN1CCN(c2cc(C(=O)Nc3cc4cc(-c5cnn(C)c5)ccc4cn3)ccn2)CC1",
    "category": "T"
  },
  {
    "compound": "CC(C)CC(NC(=O)C(Cc1ccccc1)NC(=O)c1cnccn1)B(O)O (centres undefined) + CN1CCN(c2cc(C(=O)Nc3cc4cc(-c5cnn(C)c5)ccc4cn3)ccn2)CC1",
    "category": "T"
  }
]

Ask: Status in this test for CC(C)CC(NC(=O)C(Cc1ccccc1)NC(=O)c1cnccn1)B(O)O (centres undefined) + CNC(=O)c1ccc(Nc2nc(OC3CCCC3)c3c(-c4ccc5nc(C)oc5c4)c[nH]c3n2)c(OC)c1 ?
Reply: F

* * *

System: 947758-054-R-J2-PDC spheroid growth, percent test/control
Assay: Anticancer human tumor 947758-054-R-J2-PDC cell line growth inhibition [CLK];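 note: spheroids exposed to compounds for one week before readout; 100% = DMSO vehicle control wells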
Conditions: second compound 1 µM; first compound 0.1 µM; active compounds read low; spheroids with HUVEC and MSC
For each record, write down the corresponding viability, T/C.
Give bare numbers, in %.

Solved cases (2 shown):
[
  {
    "molecule": "CC(=O)O[C@H]1C(=O)[C@@]2(C)[C@H]([C@H](OC(=O)c3ccccc3)[C@]3(O)C[C@H](OC(=O)[C@H](O)[C@@H](NC(=O)c4ccccc4)c4ccccc4)C(C)=C1C3(C)C)[C@]1(OC(C)=O)CO[C@@H]1C[C@@H]2O + CNC(=O)c1ccc(Nc2nc(OC3CCCC3)c3c(-c4ccc5nc(C)oc5c4)c[nH]c3n2)c(OC)c1",
    "unit-of-measure": "%",
    "reported-value": 83.5
  },
  {
    "molecule": "COc1c(OCCCN2CCOCC2)ccc2c3n(c(=NC(=O)c4cnc(N)nc4)nc12)CCN3 + CN1CCN(c2cc(C(=O)Nc3cc4cc(-c5cnn(C)c5)ccc4cn3)ccn2)CC1",
    "unit-of-measure": "%",
    "reported-value": 0.1
  }
]

State recorded viability, T/C for all listed molecules.
1. CC(CO)NC(=O)c1cc(-c2ccc(Cl)cc2)nn(-c2cnn(C)c2)c1=O (stereo not given) + CN1CCN(c2cc(C(=O)Nc3cc4cc(-c5cnn(C)c5)ccc4cn3)ccn2)CC1
2. COc1cccc2c1C(=O)c1c(O)c3c(c(O)c1C2=O)CC(O)(C(=O)CO)CC3OC1CC(N)C(O)C(C)O1 (stereo not given) + CNC(=O)c1ccc(Nc2nc(OC3CCCC3)c3c(-c4ccc5nc(C)oc5c4)c[nH]c3n2)c(OC)c1
3. Cn1ncnc1[C@H]1c2n[nH]c(=O)c3cc(F)cc(c23)N[C@@H]1c1ccc(F)cc1 + CN1CCN(c2cc(C(=O)Nc3cc4cc(-c5cnn(C)c5)ccc4cn3)ccn2)CC1
4. C#Cc1c(F)ccc2cc(O)cc(-c3ncc4c(N5CC6CCC(C5)N6)nc(OCC56CCCN5CC(F)C6)nc4c3F)c12 (stereo not given) + CN1CCN(c2cc(C(=O)Nc3cc4cc(-c5cnn(C)c5)ccc4cn3)ccn2)CC1
5. CC(Nc1ccc2c(c1)OCCn1cc(N3C(=O)OCC3C(F)F)nc1-2)C(N)=O (stereo not given) + CN1CCN(c2cc(C(=O)Nc3cc4cc(-c5cnn(C)c5)ccc4cn3)ccn2)CC1
6. CCCS(=O)(=O)Nc1ccc(F)c(C(=O)c2c[nH]c3ncc(-c4ccc(Cl)cc4)cc23)c1F + CNC(=O)c1ccc(Nc2nc(OC3CCCC3)c3c(-c4ccc5nc(C)oc5c4)c[nH]c3n2)c(OC)c1

Reply:
1: 0.19; 2: 22.5; 3: 1.95; 4: 0.21; 5: 0.18; 6: 25.5

For each entry beneath this line, provide reported viability, T/C.
1. CCN1CCN(Cc2ccc(Nc3ncc(F)c(-c4cc(F)c5nc(C)n(C(C)C)c5c4)n3)nc2)CC1 + CNC(=O)c1ccc(Nc2nc(OC3CCCC3)c3c(-c4ccc5nc(C)oc5c4)c[nH]c3n2)c(OC)c1
2. CCCS(=O)(=O)Nc1ccc(F)c(C(=O)c2c[nH]c3ncc(-c4ccc(Cl)cc4)cc23)c1F + CN1CCN(c2cc(C(=O)Nc3cc4cc(-c5cnn(C)c5)ccc4cn3)ccn2)CC1

Reply:
1. 31
2. 1
